Test: recombinant UMI read abundance after kanamycin selection (control-corrected) (log10(CPM+1)); higher = more efficient recombination; extreme values may be limits of the assay; sequences stand for … in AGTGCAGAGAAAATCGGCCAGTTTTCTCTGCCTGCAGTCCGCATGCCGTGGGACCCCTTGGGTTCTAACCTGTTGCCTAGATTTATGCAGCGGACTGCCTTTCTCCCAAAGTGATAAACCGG…AGGTTGGTTTCACT; site = the 11-nt donor;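 further: IS621 bridge recombinase in Escherichia coli cells against a fixed T5 target plasmid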
Parameter measured: recombinant UMI read abundance (log10)
Kindly provide the number alone.

Solved cases (3 shown):
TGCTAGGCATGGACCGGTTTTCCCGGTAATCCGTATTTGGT (site TGCTAGGCTAA); 0.0155
CTTGTATCATGGACCGGTTTTCCCGGTAATCCGTATTTGGC (site CTTGTATCTGC); 0.486
ATGGTATCATGGACCGGTTTTCCCGGTAATCCGTATTTGAC (site ATGGTATCTGT); 3.67

Request: Consider the sequence CTCCCTCCATGGACCGGTTTTCCCGGTAATCCGTATTTGAG (site CTCCCTCCTCT) and give its measured recombinant UMI read abundance (log10).
Result: 0.0401

Request: Consider the sequence AGGTTCCCATGGACCGGTTTTCCCGGTAATCCGTATTTGGG (site AGGTTCCCTCC) and give its measured recombinant UMI read abundance (log10).
Result: 0.0153

Request: Consider the sequence TCATACTCATGGACCGGTTTTCCCGGTAATCCGTATTTGCC (site TCATACTCTAG) and give its measured recombinant UMI read abundance (log10).
Result: 1.07

Request: Consider the sequence TTAGATGCATGGACCGGTTTTCCCGGTAATCCGTATTTGTG (site TTAGGTGCTCA) and give its measured recombinant UMI read abundance (log10).
Result: 0.00706

Request: Consider the sequence ACAGTATCATGGACCGGTTTTCCCGGTAATCCGTATTTGAA (site ACAGTATCTTA) and give its measured recombinant UMI read abundance (log10).
Result: 2.34

Request: Consider the sequence GGTCTGTCATGGACCGGTTTTCCCGGTAATCCGTATTTGAA (site GGTCTGTCTTT) and give its measured recombinant UMI read abundance (log10).
Result: 0.0119

Request: Consider the sequence AAAGAATCATGGACCGGTTTTCCCGGTAATCCGTATTTGCA (site AAAGAATCTTG) and give its measured recombinant UMI read abundance (log10).
Result: 2.66

Request: Consider the sequence GAAACTACATGGACCGGTTTTCCCGGTAATCCGTATTTGCC (site GAAACTACTGG) and give its measured recombinant UMI read abundance (log10).
Result: 1.88

Request: Consider the sequence TGCCTTTCATGGACCGGTTTTCCCGGTAATCCGTATTTGAC (site GGCCTTTCTGT) and give its measured recombinant UMI read abundance (log10).
Result: 0

Request: Consider the sequence TGCACACCATGGACCGGTTTTCCCGGTAATCCGTATTTGAC (site TGAACACCTGT) and give its measured recombinant UMI read abundance (log10).
Result: 0

Request: Consider the sequence CTAGTATCATGGACCGGTTTTCCCGGTAATCCGTATTTGAA (site CTAGTATCTAT) and give its measured recombinant UMI read abundance (log10).
Result: 2.59

Request: Consider the sequence CCAAGTGCATGGACCGGTTTTCCCGGTAATCCGTATTTGAT (site CCAAGTGCTAT) and give its measured recombinant UMI read abundance (log10).
Result: 1.57

Request: Consider the sequence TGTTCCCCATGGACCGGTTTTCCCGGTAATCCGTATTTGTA (site TCTTCCCCTTA) and give its measured recombinant UMI read abundance (log10).
Result: 0.0139

Request: Consider the sequence GTAAGTACATGGACCGGTTTTCCCGGTAATCCGTATTTGAC (site GTAAGTACTGT) and give its measured recombinant UMI read abundance (log10).
Result: 2.96

Request: Consider the sequence CCAGTATCATGGACCGGTTTTCCCGGTAATCCGTATTTGAC (site CTAGTATCTGT) and give its measured recombinant UMI read abundance (log10).
Result: 0.871

Request: Consider the sequence CAATGTTCATGGACCGGTTTTCCCGGTAATCCGTATTTGAA (site CAATGCTCTTT) and give its measured recombinant UMI read abundance (log10).
Result: 0.0108

Request: Consider the sequence AGGAAGACATGGACCGGTTTTCCCGGTAATCCGTATTTGGT (site AGGAAGACTTG) and give its measured recombinant UMI read abundance (log10).
Result: 0

Request: Consider the sequence CGGGAGTCATGGACCGGTTTTCCCGGTAATCCGTATTTGCG (site CGGGAGTCTAG) and give its measured recombinant UMI read abundance (log10).
Result: 1.03
